Each entry below lists one item and its recorded % inhibition of SMAD7 mRNA expression value.
# Tested on: human SMAD7 mRNA
# method: Antisense inhibition of human SMAD7 mRNA expression in Hep3B cells by 5-10-5 MOE gapmers, single concentration, electroporation, RT-PCR (Example 1, Study 1 and 2)
# Assay type: cell-based
# cond: electroporation, 15,000 nM antisense oligonucleotide (Study 2), 5-10-5 MOE gapmers targeting SEQ ID NO: 1 and 2
Strand notation (5' to 3'): a small letter for the sugar, then the base; units joined by * are phosphorothioate-linked, units joined directly phosphodiester-linked; [ ] holds rarer units or linkages, { } end groups; capitals alone tell only the bases. e = 2'-O-(2-methoxyethyl) (MOE); [5mC] = 5-methylcytosine; d = 2'-deoxy (DNA)
Form field: result (number plus unit)

Just so you know, measured % inhibition of SMAD7 mRNA expression for 771554 (antisense eT*eT*eT*eG*eG*dT*dG*dG*dT*dG*d[5mC]*dT*dT*dG*dG*eA*eT*eT*eT*e[5mC]) [compound 771554] came out at 20%

Kindly note the recorded % inhibition of SMAD7 mRNA expression for 771744 (antisense eG*eG*e[5mC]*eT*eA*dT*dT*d[5mC]*d[5mC]*d[5mC]*dA*dA*dG*dA*dG*eT*e[5mC]*e[5mC]*eA*eG) [compound 771744] , which is 23%

What the record says about 771849 (antisense e[5mC]*eT*eA*eG*eG*d[5mC]*dT*dG*dG*dT*d[5mC]*dA*d[5mC]*dT*dT*e[5mC]*e[5mC]*eA*e[5mC]*eT) [compound 771849] : % inhibition of SMAD7 mRNA expression is 66%

---

# Tested on: human SMAD7 mRNA
# method: Antisense inhibition of human SMAD7 mRNA expression in Hep3B cells by 3-10-3 cEt gapmers, 10,000 nM, electroporation (Example 2)
# Format: cell-based
# cond: Hep3B cells, electroporation with 10,000 nM antisense oligonucleotide, approximately 24 hours, SMAD7 mRNA by RT-PCR (RTS5062), relative to untreated control cells
Strand notation (5' to 3'): a small letter for the sugar, then the base; units joined by * are phosphorothioate-linked, units joined directly phosphodiester-linked; [ ] holds rarer units or linkages, { } end groups; capitals alone tell only the bases. k = constrained ethyl (cEt); [5mC] = 5-methylcytosine; d = 2'-deoxy (DNA)
# % Inhibition per record follows
Write the value in % as a bare number.

Here are 10 substances together with their reported answers.
| substance | measured.value |
| --- | --- |
| 830181 (antisense kG*k[5mC]*kG*dG*d[5mC]*dT*dT*d[5mC]*d[5mC]*dT*dG*dT*dG*k[5mC]*k[5mC]*k[5mC]) [compound 830181] | 10 |
| 790464 (kA*kG*k[5mC]*dG*dA*dA*d[5mC]*dA*dT*dG*dA*d[5mC]*d[5mC]*kT*k[5mC]*k[5mC]; antisense) [compound 790464] | 58 |
| 799489 (antisense kT*k[5mC]*kT*dA*dA*dA*d[5mC]*d[5mC]*dA*dT*dT*dT*dT*kG*kA*kT) [compound 799489] | 0 |
| 799349 (kA*kG*k[5mC]*dG*d[5mC]*dA*d[5mC]*dT*d[5mC]*dG*dG*dG*dA*kG*kA*kT; antisense) [compound 799349] | 0 |
| 799944 (antisense k[5mC]*kT*kG*d[5mC]*dA*dG*d[5mC]*dA*dA*dG*dA*dA*dG*kT*kG*kG) [compound 799944] | 5 |
| 830081 (kG*kT*kG*dT*dA*dT*dA*d[5mC]*d[5mC]*d[5mC]*dT*dG*d[5mC]*kA*k[5mC]*kT; antisense) [compound 830081] | 0 |
| 799453 (antisense kA*k[5mC]*kA*d[5mC]*dA*dG*d[5mC]*dA*d[5mC]*dT*dG*d[5mC]*d[5mC]*kA*kG*kG) [compound 799453] | 58 |
| 830188 (antisense k[5mC]*k[5mC]*kA*d[5mC]*dT*dT*dA*dG*d[5mC]*dA*dA*dG*dG*kA*kG*k[5mC]) [compound 830188] | 50 |
| 798902 (kT*kG*kA*d[5mC]*d[5mC]*dT*d[5mC]*dT*dA*dG*d[5mC]*d[5mC]*dA*kG*k[5mC]*kA; antisense) [compound 798902] | 54 |
| 790680 (kG*kG*kT*dG*dA*dG*dT*dA*dA*d[5mC]*d[5mC]*dA*dG*k[5mC]*kT*kG; antisense) [compound 790680] | 56 |

// recorded % Inhibition for 799885 (k[5mC]*k[5mC]*k[5mC]*d[5mC]*dA*d[5mC]*dA*dG*dA*dT*d[5mC]*d[5mC]*dA*kA*k[5mC]*kT; antisense) [compound 799885] : 0

Entry 799369 (antisense kA*k[5mC]*kT*d[5mC]*dA*d[5mC]*dT*dA*dA*dG*dT*d[5mC]*dT*k[5mC]*k[5mC]*kG) [compound 799369] — recorded % Inhibition = 50
